Hi there, I'd appreciate the recorded hAMY3R EC50 (cAMP) for every entry that follows.
Biological target: T1, hAMY3R (human, UniProt P30988)
T1 sequence 1: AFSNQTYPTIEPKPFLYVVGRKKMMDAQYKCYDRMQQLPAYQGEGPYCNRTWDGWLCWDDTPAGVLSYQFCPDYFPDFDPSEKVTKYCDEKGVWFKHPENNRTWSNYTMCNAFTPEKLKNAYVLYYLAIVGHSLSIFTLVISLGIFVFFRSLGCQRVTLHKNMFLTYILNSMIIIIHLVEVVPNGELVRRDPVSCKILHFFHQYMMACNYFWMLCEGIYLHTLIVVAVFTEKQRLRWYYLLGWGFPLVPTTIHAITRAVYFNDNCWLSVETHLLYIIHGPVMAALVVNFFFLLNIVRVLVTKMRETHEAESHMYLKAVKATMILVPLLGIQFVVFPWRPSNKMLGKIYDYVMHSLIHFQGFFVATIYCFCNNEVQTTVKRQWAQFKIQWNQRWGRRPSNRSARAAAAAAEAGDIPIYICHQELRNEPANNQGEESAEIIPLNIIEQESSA
T1 sequence 2: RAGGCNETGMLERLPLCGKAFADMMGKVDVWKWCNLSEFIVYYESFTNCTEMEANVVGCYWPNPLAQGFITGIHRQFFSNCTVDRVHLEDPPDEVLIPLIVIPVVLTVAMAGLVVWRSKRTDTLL
Test: cell-based or functional assay
Numbered stars: 1 amine (or outer) side, 2 acyl side, 3 side chain; on linkers, the order of the positions; unused ones are H or OH. Bridge positions count the residues as written; N and C are the ends. Square brackets hold non-standard residues; d marks the D form. Ends that are not written are not given here. * marks the point of attachment. C20 diacid = O=C(O)CCCCCCCCCCCCCCCCCCC(=O)*; γGlu = O=C(O)[C@H](CCC(=O)[*:2])N[*:1]; Hyp = O=C(O)[C@@H]1C[C@@H](O)CN1
Answers are plain numbers, in nM.

Illustrative cases are given below, each with its answer.
GCRTGTCTVQRLAHQIYQFTNKDKDNVAPRSKISPQTW [SEQ ID NO: 226]	0.186
GCRFGTCTVQRLAHQIYQFTDKDKDNVAPRTNVGPQG[Hyp]-NH2 (disulfide 2-7 (inferred); ends not checked) [SEQ ID NO: 70]	0.013
RCNASTCTVNWLADQITQFSNKDKAQVSPPTEVGPNS[Hyp]-NH2 (disulfide 2-7 (inferred); ends not checked) [SEQ ID NO: 307]	0.01
{C20 diacid-γGlu}-GCRFGTCTVQRLANQIYQFTDKDKDNVAPRTNVGPQGY-NH2 (disulfide 2-7 (inferred); ends not checked) [SEQ ID NO: 372]	0.02

Then this binder:
Reported hAMY3R EC50 (cAMP), binder {C20 diacid-γGlu}-KCNTATCTVQRLAEQIYQFTDKDKDNVAPPTQVGSNG[Hyp]-NH2 (disulfide 2-7 (inferred); not fully specified; ends not checked) [SEQ ID NO: 73] : ____ 0.013
